Value source: patent US20030236190A1

targetOrSystem: T1, Soluble IGF-1R (UniProt P08069 31-935, limits assumed)
T1 construct: extracellular domain; Bought reagent; also called sIGF-1R; insulin-like growth factor receptor
experimentSummary: phage ELISA; ratio over background for IGF-1R divided by that for IR
Positions of bridges follow the written chain, without caps; N, C: chain ends. No end group written: not given here.
Labelling: IGF-1R/IR ratio comparison reported below 3 ratio becomes class 1; at or above becomes class 0.

Some entries whose results are on file:
RCGDEEGWQENRRDDPFYHKLSELFGGC (disulfide 2-28 (inferred); not fully specified (N-terminus, C-terminus)) [B6Hα-3-ES-IR]; class 1
GHYFGSFYDAIDQLVAGMLPG [20E2A-3-A3-IGFR]; class 1
GCITAENGAGDPFYHKLSELGGCS (disulfide 2-23 (inferred); not fully specified (N-terminus, C-terminus)) [B6Hα-1-23-IR]; class 1
VRGFQGGTVWPGYEWLRNAA (not fully specified (N-terminus, C-terminus)) [R20β-E8-IR]; class 0
CSMAAVAEAGDDDDPFYHKLSELCQGS [B6Hα-3-F1-IR]; class 1

Given the entry MNVFVSFYDAIDQLVCQRIGC (not fully specified (N-terminus, C-terminus, bridges); cysteine pairing not given here) [20E2A-4-G11-IGFR] , would its reported IGF-1R/IR ratio comparison be below 3 ratio? class 1

Here's an entry: CGAKMTGTPNDPFYHKLSELLQRG [B6Hα-3-E6-IR] . Is its IGF-1R/IR ratio comparison below 3 ratio? class 1

Does the reported IGF-1R/IR ratio comparison of AGSVTSFYDAMEQLVATGTSA [20E2A-3-A4-IGFR] stay below 3 ratio? class 1

Is the reported IGF-1R/IR ratio comparison for QSGSGDFYDWLSRLIRGNGDG (not fully specified (N-terminus, C-terminus)) [20E2Bβ-3-C7-IR] strictly below 3 ratio? class 1

I'd appreciate it if you could check whether LSCLAYSRHGIWRPSTDLGLGRSVGEGSVSTRWRGYDWFE [40F-4-D1-IGFR] has IGF-1R/IR ratio comparison smaller than 3 ratio. class 0
